In what follows, each item is paired with its IC50 for Acetylcholinesterase (Mus musculus).
Give the value in µM but do not write µM after it.

Consider the worked cases shown below.
SMILES ENTRY	OBSERVED
Cc1ccccc1C(=O)NCCC1CCN(Cc2ccccc2)CC1	1
O=C(c1ccc(S(=O)(=O)Cc2ccccc2)cc1)N(CCC1CCN(Cc2ccccc2)CC1)c1ccccc1	0.0006
O=C(NCCC1CCN(Cc2ccccc2)CC1)c1ccc(Cl)cc1	0.18

(Q) Give the observed IC50 of COc1ccc(C(=O)NCCC2CCN(Cc3ccccc3)CC2)cc1 for Acetylcholinesterase (Mus musculus).
(A) 0.088

(Q) Report IC50 under test system Acetylcholinesterase (Mus musculus) for O=C(NCCC1CCN(Cc2ccccc2)CC1)c1ccccc1[N+](=O)[O-] .
(A) 0.88

(Q) Give IC50 for this entry on Acetylcholinesterase (Mus musculus): O=C(NCCC1CCN(Cc2ccccc2)CC1)c1ccccn1
(A) 0.8

====

Measured IC50 of individual entries
Target: UniProt P21836
Response body: numeric value in nM, unit text excluded.

SMILES ENTRY	IC50, nM
O=Cc1ccc(C(=O)NCCC2CCN(Cc3ccccc3)CC2)cc1	120
O=C(NCCC1CCN(Cc2ccccc2)CC1)c1ccncc1	39
c1ccc(CNCCC2CCN(Cc3ccccc3)CC2)cc1	46000
O=C(NCCC1CCN(Cc2ccccc2)CC1)c1cccnc1	69
O=C(NCCC1CCN(Cc2ccccc2)CC1)c1ccc(S(=O)(=O)Cc2ccccc2)cc1	29

Let us move to another entry and its IC50.
(Q) Name the value of IC50 reported for Cc1cccc(C(=O)NCCC2CCN(Cc3ccccc3)CC2)c1 when tested on UniProt P21836.
(A) 470

====

Biological target: UniProtKB P21836
Sequence (P21836 whole entry): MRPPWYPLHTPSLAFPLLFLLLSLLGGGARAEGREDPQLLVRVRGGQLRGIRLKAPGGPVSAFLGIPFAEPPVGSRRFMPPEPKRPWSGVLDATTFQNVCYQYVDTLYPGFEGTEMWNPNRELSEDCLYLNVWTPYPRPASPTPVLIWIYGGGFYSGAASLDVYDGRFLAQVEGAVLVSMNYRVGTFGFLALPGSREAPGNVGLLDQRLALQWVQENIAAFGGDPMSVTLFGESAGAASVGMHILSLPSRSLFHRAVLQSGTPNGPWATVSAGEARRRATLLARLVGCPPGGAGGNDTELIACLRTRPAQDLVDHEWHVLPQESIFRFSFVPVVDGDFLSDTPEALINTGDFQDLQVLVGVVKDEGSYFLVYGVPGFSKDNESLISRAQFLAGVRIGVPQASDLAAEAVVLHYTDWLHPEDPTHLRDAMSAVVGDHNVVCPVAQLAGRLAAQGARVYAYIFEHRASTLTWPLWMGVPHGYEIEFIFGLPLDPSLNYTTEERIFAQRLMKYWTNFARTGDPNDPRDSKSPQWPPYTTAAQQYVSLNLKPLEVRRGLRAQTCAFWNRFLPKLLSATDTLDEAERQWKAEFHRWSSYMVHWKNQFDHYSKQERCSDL
Classes (IC50): lower bin: < 80 nM; middle bin: ≥ 80 nM and < 200 nM; upper bin: ≥ 200 nM

# count of solved cases: 5
SMILES ENTRY	CLASS ASSIGNMENT
O=C(NCCC1CCN(Cc2ccccc2)CC1)c1cc[n+]([O-])cc1	middle bin
CCN(CCC1CCN(Cc2ccccc2)CC1)C(=O)c1ccc(S(=O)(=O)Cc2ccccc2)cc1	lower bin
Cc1ccc(C(=O)NCCC2CCN(Cc3ccccc3)CC2)cc1	middle bin
O=C(CCCC1CCN(Cc2ccccc2)CC1)c1ccccc1	upper bin
O=C(NCCC1CCN(Cc2ccccc2)CC1)C1CCCCC1	upper bin

(Q) Which band does CC(=O)c1ccc(C(=O)NCCC2CCN(Cc3ccccc3)CC2)cc1 fall in?
(A) lower bin

(Q) Into which category would you place CCN(CCC1CCN(Cc2ccccc2)CC1)C(=O)c1ccccc1 ?
(A) middle bin
